Target: Mu-type opioid receptor (Cavia porcellus)
Sequence (P97266 whole entry): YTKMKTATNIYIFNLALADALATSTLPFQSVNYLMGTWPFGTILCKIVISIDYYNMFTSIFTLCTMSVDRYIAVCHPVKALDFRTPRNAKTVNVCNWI
Assay: Compound is tested in vitro in guinea pig ileum (GPI) assay mediated by Opioid receptor mu 1
Type: tissue-based
Outcome Measure: IC50

// query IC50 value for entry "H-YAFQVVG-NH2"
280 nM

// query IC50 value for entry "H-YMFKLMD-NH2"
7500 nM

// query IC50 value for entry "H-YMFDLMD-OH"
> 15000 nM

// query IC50 value for entry "H-YMFGLMD-NH2"
100 nM

====

Target: Mu-type opioid receptor (Rattus norvegicus)
Sequence (P33535 whole entry): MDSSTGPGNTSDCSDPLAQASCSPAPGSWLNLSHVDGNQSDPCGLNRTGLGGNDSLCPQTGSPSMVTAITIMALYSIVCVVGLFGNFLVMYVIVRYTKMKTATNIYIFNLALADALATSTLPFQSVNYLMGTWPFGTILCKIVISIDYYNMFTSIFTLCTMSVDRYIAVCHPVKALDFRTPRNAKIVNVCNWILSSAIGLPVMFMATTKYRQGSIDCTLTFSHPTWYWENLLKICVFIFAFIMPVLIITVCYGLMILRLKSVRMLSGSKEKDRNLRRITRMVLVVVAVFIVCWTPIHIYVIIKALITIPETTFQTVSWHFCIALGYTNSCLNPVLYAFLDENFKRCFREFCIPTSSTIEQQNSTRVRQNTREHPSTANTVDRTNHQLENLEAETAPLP
Test: Displacement of [3H]- DAGO from opioid receptor mu in rat brain membrane
Format: cell membranes
Outcome Measure: pIC50
In plain terms, pIC50 is the concentration in mol/L turned into minus its base-10 logarithm.

Param readout= pIC50; system= Mu-type opioid receptor (Rattus norvegicus); entry= "H-YMFFLMD-NH2" ; returns value.
6.35

Param readout= pIC50; system= Mu-type opioid receptor (Rattus norvegicus); entry= "H-YMFHLMN-OH" ; returns value.
6.18

Param readout= pIC50; system= Mu-type opioid receptor (Rattus norvegicus); entry= "H-YMFHLMD-OH" ; returns value.
5.82

Param readout= pIC50; system= Mu-type opioid receptor (Rattus norvegicus); entry= "H-YMFHLMN-NH2" ; returns value.
6.42

Param readout= pIC50; system= Mu-type opioid receptor (Rattus norvegicus); entry= "H-YMFYLMD-NH2" ; returns value.
6.80

Param readout= pIC50; system= Mu-type opioid receptor (Rattus norvegicus); entry= "H-YAFDVV-NH2" ; returns value.
6.15

====

So I've got a bunch of compounds here, and I need their IC50 values.
Target: Delta-type opioid receptor (Mus musculus)
Assay: In vitro opioid receptor delta mediated mouse vas deferens (MVD) assay
Assay type: tissue-based
Non-standard residues stand in square brackets, D forms with d. Residues, ends and D or L forms follow the SMILES beside them. Abu = CC[C@H](N)C(=O)O
// note: answer is a bare numeric in nM

// query IC50 value for entry CSCC[C@H](NC(=O)[C@H](CC(C)C)NC(=O)[C@H](Cc1cnc[nH]1)NC(=O)[C@H](Cc1ccccc1)NC(=O)[C@@H](CCSC)NC(=O)[C@@H](N)Cc1ccc(O)cc1)C(=O)N[C@@H](CC(=O)O)C(N)=O (H-Y[dM]FHLMD-NH2)
1.3

// query IC50 value for entry CC[C@H](NC(=O)[C@H](CCSC)NC(=O)[C@H](CC(C)C)NC(=O)[C@H](Cc1cnc[nH]1)NC(=O)[C@H](Cc1ccccc1)NC(=O)[C@H](CCSC)NC(=O)[C@@H](N)Cc1ccc(O)cc1)C(N)=O (H-YMFHLM[Abu]-NH2)
1.5

// query IC50 value for entry C[C@H](NC(=O)[C@@H](N)Cc1ccc(O)cc1)C(=O)N[C@@H](Cc1ccccc1)C(=O)N[C@@H](CC(=O)O)C(N)=O (H-YAFD-NH2)
1000

// query IC50 value for entry "CC(C)[C@H](NC(=O)[C@H](CCC(=O)O)NC(=O)[C@H](Cc1ccccc1)NC(=O)[C@H](C)NC(=O)[C@@H](N)Cc1ccc(O)cc1)C(=O)N[C@H](C(=O)NCC(=O)O)C(C)C"
5.55

====

So I've got a bunch of compounds here, and I need their IC50 values.
Molecular target: Mu-type opioid receptor (Cavia porcellus)
Assay: Inhibition of opioid receptor mu in guinea pig ileum (GPI)
Assay type: tissue-based
Non-standard residues stand in square brackets, D forms with d. Residues, ends and D or L forms follow the SMILES beside them. Abu = CC[C@H](N)C(=O)O
// note: answer is a bare numeric in nM

// query IC50 value for entry "C[C@@H](NC(=O)[C@@H](N)Cc1ccc(O)cc1)C(=O)N[C@@H](Cc1ccccc1)C(=O)NCC(=O)N[C@@H](Cc1ccc(O)cc1)C(=O)N1CCC[C@H]1C(=O)N[C@@H](CO)C(N)=O"
1.41

// query IC50 value for entry "CC(C)[C@H](NC(=O)[C@H](CC(=O)O)NC(=O)[C@H](Cc1ccccc1)NC(=O)[C@H](C)NC(=O)[C@@H](N)Cc1ccc(O)cc1)C(=O)N[C@H](C(=O)NCC(N)=O)C(C)C"
420

// query IC50 value for entry CC[C@H](NC(=O)[C@H](CCSC)NC(=O)[C@H](CC(C)C)NC(=O)[C@H](Cc1cnc[nH]1)NC(=O)[C@H](Cc1ccccc1)NC(=O)[C@H](CCSC)NC(=O)[C@@H](N)Cc1ccc(O)cc1)C(N)=O (H-YMFHLM[Abu]-NH2)
300

// query IC50 value for entry "CC(C)[C@H](NC(=O)[C@H](CCC(=O)O)NC(=O)[C@H](Cc1ccccc1)NC(=O)[C@H](C)NC(=O)[C@@H](N)Cc1ccc(O)cc1)C(=O)N[C@H](C(=O)NCC(N)=O)C(C)C"
5200

// query IC50 value for entry C[C@H](NC(=O)[C@@H](N)Cc1ccc(O)cc1)C(=O)N[C@@H](Cc1ccccc1)C(=O)N[C@@H](CC(=O)O)C(N)=O (H-YAFD-NH2)
160

// query IC50 value for entry CSCC[C@H](NC(=O)[C@H](CC(C)C)NC(=O)[C@H](Cc1cnc[nH]1)NC(=O)[C@H](Cc1ccccc1)NC(=O)[C@@H](CCSC)NC(=O)[C@@H](N)Cc1ccc(O)cc1)C(=O)N[C@@H](CC(=O)O)C(N)=O (H-Y[dM]FHLMD-NH2)
1900

// query IC50 value for entry "CC(C)[C@H](NC(=O)[C@H](CCC(=O)O)NC(=O)[C@H](Cc1ccccc1)NC(=O)[C@H](C)NC(=O)[C@@H](N)Cc1ccc(O)cc1)C(=O)N[C@H](C(=O)NCC(=O)O)C(C)C"
9000

====

So I've got a bunch of substances here, and I need their IC50 values.
Biological target: Delta-type opioid receptor (Rattus norvegicus)
Assay: Opioid receptor binding affinity in rat brain membrane preparations by the displacement of [3H]- DPDPE (Opioid receptor delta 1-selective radioligand)
Assay type: cell membranes
// note: answer is a bare numeric in nM

// query IC50 value for entry "H-YMFGLMD-NH2"
8

// query IC50 value for entry "H-YMFKLMD-NH2"
380

// query IC50 value for entry "H-YMFDLMD-OH"
55

====

Experiment: IC50 ratio is GPI/MVD
Outcome Measure: Ratio
Please give only the number in your answer, with no unit.

// query Ratio value for entry "H-YMFGLMD-NH2"
62

// query Ratio value for entry "H-YMFKLMD-NH2"
7.5

// query Ratio value for entry "H-YAFQVVG-NH2"
185

====

Molecular target: Mu-type opioid receptor (Rattus norvegicus)
Assay: Opioid receptor mu 1 binding affinity in rat brain membrane preparations by the displacement of [3H]- DAGO
Format: cell membranes
So I've got a bunch of substances here, and I need their IC50 values.

// query IC50 value for entry "H-YMFDLMD-OH"
> 30 µM

// query IC50 value for entry "H-YMFKLMD-NH2"
6 µM

// query IC50 value for entry "H-YAFQVVG-NH2"
0.28 µM

// query IC50 value for entry "H-YMFGLMD-NH2"
0.161 µM

====

Target: Delta-type opioid receptor (Rattus norvegicus, UniProt P33533)
Sequence (P33533 whole entry): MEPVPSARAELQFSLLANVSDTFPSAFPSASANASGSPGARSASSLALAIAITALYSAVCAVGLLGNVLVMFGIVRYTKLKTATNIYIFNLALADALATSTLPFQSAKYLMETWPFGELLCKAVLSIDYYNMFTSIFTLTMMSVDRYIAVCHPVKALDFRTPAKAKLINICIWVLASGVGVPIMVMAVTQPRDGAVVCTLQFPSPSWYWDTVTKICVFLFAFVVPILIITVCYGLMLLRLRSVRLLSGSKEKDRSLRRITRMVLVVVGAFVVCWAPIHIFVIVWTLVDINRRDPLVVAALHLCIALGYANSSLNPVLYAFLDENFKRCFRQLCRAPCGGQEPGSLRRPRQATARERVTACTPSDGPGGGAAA
Assay: Opioid receptor binding affinity in rat brain membrane preparations by the displacement of [3H]DSLET (Opioid receptor delta 1-selective radioligand)
Type: cell membranes
Non-standard residues stand in square brackets, D forms with d. Residues, ends and D or L forms follow the SMILES beside them. Abu = CC[C@H](N)C(=O)O
Outcome Measure: IC50 (nM)
// note: answer is a bare numeric in nM

// query IC50 value for entry CC[C@H](NC(=O)[C@@H](NC(=O)CNC(=O)[C@H](Cc1ccccc1)NC(=O)[C@H](C)NC(=O)[C@@H](N)Cc1ccc(O)cc1)C(C)C)C(=O)N[C@@H](CC(=O)O)C(N)=O (H-YAFGV[Abu]D-NH2)
29.5

====

Molecular target: Delta-type opioid receptor (Mus musculus, UniProt P32300)
Sequence (P32300 whole entry): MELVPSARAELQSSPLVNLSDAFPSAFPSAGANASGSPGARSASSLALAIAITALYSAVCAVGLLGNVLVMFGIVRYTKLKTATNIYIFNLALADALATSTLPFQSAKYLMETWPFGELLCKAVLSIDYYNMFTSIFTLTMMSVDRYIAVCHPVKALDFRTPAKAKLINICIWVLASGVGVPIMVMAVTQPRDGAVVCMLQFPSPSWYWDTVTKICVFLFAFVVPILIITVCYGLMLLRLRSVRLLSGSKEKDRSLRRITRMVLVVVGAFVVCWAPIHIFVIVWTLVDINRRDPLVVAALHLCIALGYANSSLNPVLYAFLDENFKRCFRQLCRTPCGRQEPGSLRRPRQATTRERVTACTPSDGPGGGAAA
Experiment: Compound is tested in vitro in mouse vas deferens (MVD) assay mediated by Opioid receptor delta 1
Format: tissue-based
Outcome Measure: pIC50
In plain terms, pIC50 is the concentration in mol/L turned into minus its base-10 logarithm.

Param readout= pIC50; system= Delta-type opioid receptor (Mus musculus, UniProt P32300); entry= "H-YMFGLMD-NH2" ; returns value.
8.78

Param readout= pIC50; system= Delta-type opioid receptor (Mus musculus, UniProt P32300); entry= "H-YMFKLMD-NH2" ; returns value.
6.00

Param readout= pIC50; system= Delta-type opioid receptor (Mus musculus, UniProt P32300); entry= "H-YAFQVVG-NH2" ; returns value.
8.82

Param readout= pIC50; system= Delta-type opioid receptor (Mus musculus, UniProt P32300); entry= "H-YMFDLMD-OH" ; returns value.
6.42
